system: Streptococcus pneumoniae; test: Antimicrobial activity against mef-encoded erythromycin resistant Streptococcus pneumoniae PU09 incubated in CAMHB medium for 20 to 24 hrs by two-fold microbroth dilution method; assay type: functional
As shown below, each of these molecules has a reported MIC value.
Give the quantity in µg/mL, number only.

[[record]]
structure_notation = "CC[C@H]1OC(=O)[C@H](C)[C@@H](OCC#Cc2ccc(-c3ccccn3)s2)[C@H](C)[C@@H](O[C@@H]2O[C@H](C)C[C@H](N(C)C)[C@H]2O)[C@](C)(OC)C[C@@H](C)/C(=N\\OC)[C@H](C)[C@H]2OC(=O)O[C@@]21C"
experimental_system = "Streptococcus pneumoniae"
assay_result = 8

[[record]]
structure_notation = "CC[C@H]1OC(=O)[C@H](C)[C@@H](OC(=O)CCNCCCCc2cccnc2)[C@H](C)[C@@H](O[C@@H]2O[C@H](C)C[C@H](N(C)C)[C@H]2O)[C@](C)(OC)C[C@@H](C)/C(=N\\OC)[C@H](C)[C@H]2OC(=O)O[C@@]21C"
experimental_system = "Streptococcus pneumoniae"
assay_result = 2

[[record]]
structure_notation = "CC[C@H]1OC(=O)[C@H](C)[C@@H](OC(=O)NCCCc2ccc3c(c2)c(=O)c(C(=O)O)cn3C2CC2)[C@H](C)[C@@H](O[C@@H]2O[C@H](C)C[C@H](N(C)C)[C@H]2O)[C@](C)(OC)C[C@@H](C)/C(=N\\OC)[C@H](C)[C@H]2OC(=O)O[C@@]21C"
experimental_system = "Streptococcus pneumoniae"
assay_result = 2

[[record]]
structure_notation = "C=CCO/N=C1\\[C@H](C)C[C@@](C)(OC)[C@H](O[C@@H]2O[C@H](C)C[C@H](N(C)C)[C@H]2O)[C@@H](C)[C@H](OCC#Cc2cccc(N)n2)[C@@H](C)C(=O)O[C@H](CC)[C@@]2(C)OC(=O)O[C@@H]2[C@H]1C"
experimental_system = "Streptococcus pneumoniae"
assay_result = 4

[[record]]
structure_notation = "C=CCO/N=C1\\[C@H](C)C[C@@](C)(OC)[C@H](O[C@@H]2O[C@H](C)C[C@H](N(C)C)[C@H]2O)[C@@H](C)[C@H](OCC#Cc2cncc(N)c2)[C@@H](C)C(=O)O[C@H](CC)[C@@]2(C)OC(=O)O[C@@H]2[C@H]1C"
experimental_system = "Streptococcus pneumoniae"
assay_result = 8

[[record]]
structure_notation = "CC[C@H]1OC(=O)[C@H](C)[C@@H](OC(=O)NCCCc2cncc(N)c2)[C@H](C)[C@@H](O[C@@H]2O[C@H](C)C[C@H](N(C)C)[C@H]2O)[C@](C)(OC)C[C@@H](C)/C(=N\\OC)[C@H](C)[C@H]2OC(=O)O[C@@]21C"
experimental_system = "Streptococcus pneumoniae"
assay_result = 4


Item `C=CCO/N=C1\[C@H](C)C[C@@](C)(OC)[C@H](O[C@@H]2O[C@H](C)C[C@H](N(C)C)[C@H]2O)[C@@H](C)[C@H](OCC#Cc2ccnc(N)c2)[C@@H](C)C(=O)O[C@H](CC)[C@@]2(C)OC(=O)O[C@@H]2[C@H]1C` has what recorded MIC? 8
